assay-notes: Aqueous solubility
stated-conditions: pH 3.43 buffer, 25 °C, pH 3.43, aqueous buffer
endpoint-label: solubility (mg/mL)
One number for each entry, in mg/mL.

Fill in: solubility of CCNC(C)Cc1cccc(C(F)(F)F)c1.Cl (racemic) [Fenfluramine HCl] is ___
29.5

----------
assay-notes: pKa (water) of drug substance
endpoint-label: pKa

Which pKa is listed for CCNC(C)Cc1cccc(C(F)(F)F)c1.Cl (racemic) [Fenfluramine HCl] ?
10.2 to 10.4

----------
assay-notes: Solubility in organic solvents
stated-conditions: dichloromethane, 25 °C, organic solvent or mixture
endpoint-label: solubility

Look up solubility: CCNC(C)Cc1cccc(C(F)(F)F)c1.Cl (racemic) [Fenfluramine HCl]
30 to 35 mg/mL

----------
assay-notes: Aqueous solubility
stated-conditions: pH 1.73 buffer, 25 °C, pH 1.73, simulated gastric fluid
endpoint-label: solubility (mg/mL)
Give bare numbers, in mg/mL.

Sample CCNC(C)Cc1cccc(C(F)(F)F)c1.Cl (racemic) [Fenfluramine HCl] — what was its solubility?
25.3
